Measured values drawn from ChEMBL document CHEMBL2034842 for this set.

// reported MIC per item
system: Klebsiella aerogenes; assay: Antibacterial activity against Enterobacter aerogenes after 18 to 22 hrs by […]; assay type: functional

Example compounds with recorded MIC:
INSERT INTO results (compound, reported_result) VALUES
  ('CC1CC/C(=N\Nc2nc(-c3ccc(I)cc3)cs2)C1 (configuration not stated)', '32 mg/L'),
  ('Ic1ccc(-c2csc(N/N=C/c3ccco3)n2)cc1', '32 mg/L'),
  ('C/C(=N\Nc1nc(-c2ccc(I)cc2)cs1)c1cc2ccccc2oc1=O', '> 128 mg/L');

**Q:** Consider the compound C/C(=N\Nc1nc(-c2ccc(I)cc2)cs1)c1ccco1 and give its measured MIC.
**A:** > 128 mg/L
